Origin of values: PubChem BioAssay AID1963976

Tested on: 435261-313-R-J1-PDC tumor spheroid viability;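 further: spheroids exposed to compounds for 7 days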
Assay: Anticancer human tumor 435261-313-R-J1-PDC patient-derived colon adenocarcinoma cell line growth inhibition [PI3K]
Settings: second compound 0.316 µM; first compound 0.316 µM; active compounds read low; spheroids with HUVEC and MSC
Description: Combinatorial screen of targeted agents with the PI3K inhibitors inavolisib, alpelisib, duvelisib, and copanlisib in multi-cell type tumor spheroids A high-throughput screen of multi-cell type tumor spheroids was designed to identify active combinations of targeted small molecules and PI3K pathway inhibitors. […] Compounds. […] If the clinical Cmax for an agent had not been determined, the highest concentration tested was 10 microM. […]
// viability, T/C lookup, one value per entry
Metric: viability, T/C

• CC(C)NCC(C(=O)N1CCN(c2ncnc3c2C(C)CC3O)CC1)c1ccc(Cl)cc1 (stereo unspecified) + CC(Nc1ncnc2nc[nH]c12)c1cc2cccc(Cl)c2c(=O)n1-c1ccccc1 = 77.6%
• C=CC(=O)N1CCN(c2nc(=O)n(-c3c(C)ccnc3C(C)C)c3nc(-c4c(O)cccc4F)c(F)cc23)C(C)C1 (stereo unspecified) + Cc1nc(NC(=O)N2CCCC2C(N)=O)sc1-c1ccnc(C(C)(C)C(F)(F)F)c1 = 56.9%
• C=CC(=O)N1CCN(c2nc(=O)n(-c3c(C)ccnc3C(C)C)c3nc(-c4c(O)cccc4F)c(F)cc23)C(C)C1 (stereo unspecified) + CC(Nc1ccc2c(c1)OCCn1cc(N3C(=O)OCC3C(F)F)nc1-2)C(N)=O = 27%
• CNC(=O)c1ccc(N2C(=S)N(c3ccc(C#N)c(C(F)(F)F)c3)C(=O)C2(C)C)cc1F + CC(Nc1ccc2c(c1)OCCn1cc(N3C(=O)OCC3C(F)F)nc1-2)C(N)=O = 15.5%
• Cn1ncc(Cl)c1-c1cc(C(=O)NC(CN)Cc2cccc(F)c2)sc1Cl (stereo unspecified) + CC(Nc1ccc2c(c1)OCCn1cc(N3C(=O)OCC3C(F)F)nc1-2)C(N)=O = 14%
• Cn1nccc1Nc1nccc(-c2ccn(C(CO)c3ccc(Cl)c(F)c3)c(=O)c2)n1 (stereo unspecified) + COc1c(OCCCN2CCOCC2)ccc2c3n(c(=NC(=O)c4cnc(N)nc4)nc12)CCN3 = 3.27%
